# TEST_DESCRIPTION: Enzyme Assay: The assays were all performed in a buffer consisting of 20 mM Bicine (pH=7.6), 1 mM TCEP, 0.005% BSG, and 0.002% Tween 20, prepared on the day of use. Compounds in 100% DMSO (1 ul) were spotted into a polypropylene 384-well V-bottom plates using a Platemate Plus outfitted with a 384-channel head . DMSO (1 ul) was added to Columns 11, 12, 23, 24, rows A-H for the maximum signal control and 1 ul of SAH, a known product and inhibitor of CARM1, was added to columns 11, 12, 23, 24, rows I-P for the minimum signal control. A cocktail (40 ul) containing the CARM1 enzyme was added by Multidrop Combi. The compounds were allowed to incubate with CARM1 for 30 min at room temperature, then a cocktail (10 ul) containing 3H-SAM and peptide was added to initiate the reaction (final volume=51 ul). The final concentrations of the components were as follows: CARM1 was 0.25 nM, 3H-SAM was 30 nM, peptide was 250 nM, SAH in the minimum signal control wells was 1 mM, and the DMSO concentration was 2%. The assays were stopped by the addition of non-radiolabeled SAM (10 ul) to a final concentration of 300 uM, which dilutes the 3H-SAM to a level where its incorporation into the peptide substrate is no longer detectable. 50 ul of the reaction in the 384-well polypropylene plate was then transferred to a 384-well Flashplate and the biotinylated peptides were allowed to bind to the streptavidin surface for at least 1 hour before being washed once with 0.1% Tween20 in a Biotek ELx405 plate washer.
# IC50 per record follows
ASSAY_METRIC: IC50

1) CNCC(O)COc1cccc(-c2nc(-c3c(C)noc3C)cc(N3C[C@@H]4C[C@H]3CN4C(=O)OC)n2)c1 (stereo partly drawn) = < 0.1 µM
2) CNCC(O)COc1cccc(-c2nc(-c3c(C)noc3C)c(C)c(N3CCO[C@H](CNC)C3)n2)c1 (stereo partly drawn) = < 0.1 µM
3) CNC[C@@H](O)COc1ccc(Cl)c(-c2nc(-c3c(C)noc3C)c(C)c(N3Cc4c(C)nn(C)c4C3)n2)c1 = < 0.1 µM
